- assayed-target: Cathepsin B (Homo sapiens, UniProt P07858)
- assay-overview: Inhibitory activity against recombinant human cathepsin B (cat B) expressed in baculovirus.
metric-name: pIC50
Expect pIC50 as a plain number equal to -log10 of the molar concentration.

Cc1cccc(C[C@H](NC(=O)c2ccc(Cl)cc2F)C(=O)N[C@H](C#N)COCc2cccc(C(=O)O)c2)c1	8.70

Data request: Tell me the measured pIC50 of `Cc1cccc(C[C@H](NC(=O)C(c2ccccc2)c2ccccc2)C(=O)N[C@H](C#N)COCc2ccccc2)c1` , please.
Data returned: 7.99

###

- assayed-target: Procathepsin L (Homo sapiens)
- Sequence (P07711 whole entry): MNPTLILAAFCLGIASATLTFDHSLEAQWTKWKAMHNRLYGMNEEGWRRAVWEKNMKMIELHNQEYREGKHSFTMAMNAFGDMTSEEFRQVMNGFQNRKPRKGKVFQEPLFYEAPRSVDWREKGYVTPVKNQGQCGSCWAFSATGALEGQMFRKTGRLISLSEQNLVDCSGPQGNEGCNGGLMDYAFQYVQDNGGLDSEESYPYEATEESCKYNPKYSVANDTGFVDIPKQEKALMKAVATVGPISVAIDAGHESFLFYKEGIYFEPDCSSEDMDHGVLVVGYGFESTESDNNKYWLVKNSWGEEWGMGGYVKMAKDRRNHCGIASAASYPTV
- assay-overview: Inhibitory activity against recombinant human cathepsin L (cat L) expressed in baculovirus
Entries and their pIC50
Expect pIC50 as a plain number equal to -log10 of the molar concentration.

N#CCNC(=O)[C@H](Cc1ccccc1)NC(=O)C(c1ccccc1)c1ccccc1	7.51

Data request: Tell me the measured pIC50 of `N#CCNC(=O)[C@H](Cc1ccccc1)NC(=O)Cc1ccccc1` , please.
Data returned: 6.77

###

- assayed-target: Cathepsin B (Homo sapiens)
- assay-overview: Inhibitory activity against recombinant human cathepsin B (cat B) expressed in baculovirus.
metric-name: pIC50
Expect pIC50 as a plain number equal to -log10 of the molar concentration.

Below, 6 molecules whose answers are already recorded.
Cc1cncc(C[C@H](NC(=O)C(c2ccccc2)c2ccccc2)C(=O)NCC#N)c1	6.19
Cc1cccc(C[C@H](NC(=O)C(c2ccccc2)c2ccccc2)C(=O)N[C@H](C#N)CCCc2cccc(C(=O)O)c2)c1	7.74
N#CCNC(=O)[C@H](Cc1cccc(I)c1)NC(=O)C(c1ccccc1)c1ccccc1	6.92
Cc1cccc(C[C@H](NC(=O)C(c2ccccc2)c2ccccc2)C(=O)N[C@H](C#N)CC#Cc2cccc(C(=O)O)c2)c1	8.25
Cc1cccc(C[C@H](NC(=O)c2ccc(Cl)cc2)C(=O)NCC#N)c1	6.51
Cc1cccc(C[C@H](NC(=O)c2ccc(Cl)c(Cl)c2)C(=O)NCC#N)c1	7.50

Please examine the following record next.
Data request: Tell me the measured pIC50 of `COC(=O)c1cccc(COC[C@@H](C#N)NC(=O)[C@H](Cc2cccc(C)c2)NC(=O)C(c2ccccc2)c2ccccc2)c1` , please.
Data returned: 7.33

###

- assayed-target: Cathepsin S (Homo sapiens)
- Sequence (P25774 whole entry): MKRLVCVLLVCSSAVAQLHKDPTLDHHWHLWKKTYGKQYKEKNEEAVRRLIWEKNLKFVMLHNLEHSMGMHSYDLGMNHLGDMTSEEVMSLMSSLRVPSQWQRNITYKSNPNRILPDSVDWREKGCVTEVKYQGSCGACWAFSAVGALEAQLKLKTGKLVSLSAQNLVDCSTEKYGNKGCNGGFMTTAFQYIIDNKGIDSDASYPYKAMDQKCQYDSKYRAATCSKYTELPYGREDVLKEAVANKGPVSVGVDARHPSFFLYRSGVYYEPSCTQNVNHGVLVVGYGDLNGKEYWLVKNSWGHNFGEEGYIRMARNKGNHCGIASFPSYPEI
- assay-overview: Inhibitory activity against recombinant human cathepsin S (cat S) expressed in baculovirus
metric-name: pIC50
Expect pIC50 as a plain number equal to -log10 of the molar concentration.

N#CCNC(=O)[C@H](Cc1ccccc1)NC(=O)Cc1ccccc1	6.65

Please examine the following record next.
Data request: Please state recorded pIC50 (tested on Cathepsin S (Homo sapiens)) of `N#CCNC(=O)[C@H](Cc1ccccc1)NC(=O)C(c1ccccc1)c1ccccc1`
Data returned: 7.32

###

- assayed-target: UniProtKB P07858
- assay-overview: Inhibitory activity against recombinant human cathepsin B (cat B) expressed in baculovirus.
Entries and their IC50
// return numeric value only (unit: nM, not printed)

Below, 2 molecules whose answers are already recorded.
Cc1cccc(C[C@H](NC(=O)C(c2ccccc2)c2ccccc2)C(=O)N[C@H](C#N)COCc2cccc(CO)c2)c1	29
Cc1cccc(C[C@H](NC(=O)c2ccccc2)C(=O)NCC#N)c1	1900

Please examine the following record next.
Data request: Tell me the measured IC50 of `N#CCNC(=O)[C@H](Cc1ccccc1)NC(=O)Cc1ccccc1` , please.
Data returned: 34000

###

- assayed-target: Cathepsin B (Homo sapiens)
- assay-overview: Inhibitory activity against recombinant human cathepsin B (cat B) expressed in baculovirus.
Entries and their pIC50
Expect pIC50 as a plain number equal to -log10 of the molar concentration.

Below, 10 compounds whose answers are already recorded.
N#CCNC(=O)[C@H](Cc1ccccc1)NC(=O)C(c1ccccc1)c1ccccc1	6.30
Cc1cccc(C[C@H](NC(=O)c2ccc(Cl)cc2F)C(=O)NCC#N)c1	7.14
Cc1cc(C)cc(C[C@H](NC(=O)C(c2ccccc2)c2ccccc2)C(=O)NCC#N)c1	7.92
CCc1cccc(C[C@H](NC(=O)C(c2ccccc2)c2ccccc2)C(=O)NCC#N)c1	6.87
Cc1cccc(C[C@H](NC(=O)c2ccc(F)cc2F)C(=O)N[C@H](C#N)CCCc2cccc(C(=O)O)c2)c1	6.96
Cc1cccc(C[C@H](NC(=O)c2ccc(Cl)cc2F)C(=O)N[C@H](C#N)COCc2ccccc2)c1	7.77
Cc1cccc(C[C@H](NC(=O)c2ccc(F)cc2F)C(=O)NCC#N)c1	6.23
CCCCC(=O)N[C@@H](Cc1cccc(C)c1)C(=O)NCC#N	5.52
Cc1cccc(C[C@H](NC(=O)C(c2ccccc2)c2ccccc2)C(=O)N[C@H](C#N)COCc2ccc(C(=O)O)cc2)c1	7.51
Cc1cccc(C[C@H](NC(=O)C(c2ccccc2)c2ccccc2)C(=O)N[C@H](C#N)CCOc2cccc(C(=O)O)c2)c1	6.86

Please examine the following record next.
Data request: Tell me the measured pIC50 of `CCCCC(=O)N[C@@H](Cc1cccc(C)c1)C(=O)N[C@H](C#N)COCc1cccc(C(=O)O)c1` , please.
Data returned: 7.45

###

- assayed-target: Cathepsin B (Homo sapiens)
- assay-overview: Inhibitory activity against recombinant human cathepsin B (cat B) expressed in baculovirus.
metric-name: IC50 (µM)
// return numeric value only (unit: µM, not printed)

Cc1cccc(C[C@H](NC(=O)c2ccccc2)C(=O)N[C@H](C#N)COCc2cccc(C(=O)O)c2)c1	0.0094

Data request: Tell me the measured IC50 of `Cc1cccc(C[C@H](NC(=O)c2ccc(F)cc2F)C(=O)N[C@H](C#N)COCc2ccccc2)c1` , please.
Data returned: 0.042

Data request: Tell me the measured IC50 of `N#CCNC(=O)[C@H](Cc1ccccc1)NC(=O)OCc1ccccc1` , please.
Data returned: 62

Data request: Tell me the measured IC50 of `N#CCNC(=O)[C@H](Cc1cccc(Cl)c1)NC(=O)C(c1ccccc1)c1ccccc1` , please.
Data returned: 0.13

Data request: Tell me the measured IC50 of `Cc1cc(CN)cc(C[C@H](NC(=O)C(c2ccccc2)c2ccccc2)C(=O)NCC#N)c1` , please.
Data returned: 0.358

Reference for the values: ChEMBL document CHEMBL1134316
